B1: CPEB3 Ribozyme (parent)
chain: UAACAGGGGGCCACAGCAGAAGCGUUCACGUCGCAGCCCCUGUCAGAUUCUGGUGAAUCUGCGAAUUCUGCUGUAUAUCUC

variants of: B1; experiment: self-cleavage, relative activity (ratio to wild type); higher = more cleavage; in vitro, sequencing
measurement.type: self-cleavage

variant_name="A45U U66A" value_observed=0.31
variant_name="A3G A21U" value_observed=0.49
variant_name="A21G C50U" value_observed=0.62
variant_name="A28G U31A" value_observed=0.33
variant_name="G30U U41G" value_observed=0.13
variant_name="A56G U66G" value_observed=0.38
variant_name="G30U U51C" value_observed=0.16
variant_name="C23A U26A" value_observed=0.49
variant_name="G52A U60G" value_observed=0.44
variant_name="U31A A75G" value_observed=0.47
variant_name="G24A U74A" value_observed=0.18
variant_name="C29U U58C" value_observed=0.46
variant_name="A2U G70C" value_observed=0.31
variant_name="U51A U78G" value_observed=1.04
variant_name="U26C C59A" value_observed=0.17
variant_name="A2G G46A" value_observed=0.28
variant_name="A21C G73A" value_observed=0.35
variant_name="U26G U72C" value_observed=0.31
variant_name="C23A U80G" value_observed=0.51
variant_name=U25A value_observed=0.3
variant_name="C68G U72C" value_observed=0.48
variant_name="U48A U69G" value_observed=0.34

// provenance: the RNAGym collection of RNA variant scans (doi:10.1093/nar/gkz1192)
